Molecular target: Inhibitor of nuclear factor kappa-B kinase subunit beta (Homo sapiens, UniProt O14920)
Sequence (O14920 whole entry): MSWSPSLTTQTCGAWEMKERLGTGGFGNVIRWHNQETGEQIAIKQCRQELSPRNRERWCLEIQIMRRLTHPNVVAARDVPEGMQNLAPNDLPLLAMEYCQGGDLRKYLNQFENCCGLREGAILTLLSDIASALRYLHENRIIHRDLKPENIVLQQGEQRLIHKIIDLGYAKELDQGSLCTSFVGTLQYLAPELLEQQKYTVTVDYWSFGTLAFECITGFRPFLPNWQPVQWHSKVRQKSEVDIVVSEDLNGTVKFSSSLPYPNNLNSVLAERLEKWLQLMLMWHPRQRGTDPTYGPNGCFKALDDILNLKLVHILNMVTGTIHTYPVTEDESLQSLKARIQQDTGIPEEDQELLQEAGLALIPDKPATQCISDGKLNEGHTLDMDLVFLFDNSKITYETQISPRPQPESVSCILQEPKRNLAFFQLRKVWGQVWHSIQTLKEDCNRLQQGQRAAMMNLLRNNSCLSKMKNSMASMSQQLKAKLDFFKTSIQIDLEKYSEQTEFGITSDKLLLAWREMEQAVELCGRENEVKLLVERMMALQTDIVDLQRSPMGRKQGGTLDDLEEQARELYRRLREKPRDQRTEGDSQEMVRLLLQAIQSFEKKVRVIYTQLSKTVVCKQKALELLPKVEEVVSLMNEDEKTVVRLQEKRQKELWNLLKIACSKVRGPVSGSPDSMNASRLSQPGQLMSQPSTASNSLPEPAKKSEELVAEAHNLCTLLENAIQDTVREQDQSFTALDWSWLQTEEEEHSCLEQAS
Assay: Inhibition of IKK2
VALUE KIND: IC50

Could you share which IC50 value was measured for O=C(Nc1cccc(-c2ncnc3sc(-c4ccncc4)cc23)c1)c1cccc(C(F)(F)F)c1 ?
> 10 µM

* * *

Molecular target: Protein kinase C theta type (Homo sapiens, UniProt Q04759)
Sequence (Q04759 whole entry): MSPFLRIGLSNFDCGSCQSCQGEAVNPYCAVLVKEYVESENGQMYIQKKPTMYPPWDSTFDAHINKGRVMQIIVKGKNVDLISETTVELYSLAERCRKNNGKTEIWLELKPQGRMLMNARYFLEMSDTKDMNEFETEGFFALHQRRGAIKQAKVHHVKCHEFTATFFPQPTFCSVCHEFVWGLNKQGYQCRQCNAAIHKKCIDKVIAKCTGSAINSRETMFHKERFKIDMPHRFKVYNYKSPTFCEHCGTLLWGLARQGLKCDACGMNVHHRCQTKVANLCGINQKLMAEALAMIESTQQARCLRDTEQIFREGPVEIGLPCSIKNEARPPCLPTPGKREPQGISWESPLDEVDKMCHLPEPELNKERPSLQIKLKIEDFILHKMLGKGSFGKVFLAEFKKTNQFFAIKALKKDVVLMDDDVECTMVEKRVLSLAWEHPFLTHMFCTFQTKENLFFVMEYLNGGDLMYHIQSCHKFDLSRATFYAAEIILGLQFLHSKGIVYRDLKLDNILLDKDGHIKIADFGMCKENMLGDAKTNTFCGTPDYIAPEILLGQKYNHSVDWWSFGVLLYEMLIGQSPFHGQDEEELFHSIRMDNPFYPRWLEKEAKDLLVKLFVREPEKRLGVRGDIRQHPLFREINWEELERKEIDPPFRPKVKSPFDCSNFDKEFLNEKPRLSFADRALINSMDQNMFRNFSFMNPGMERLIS
pIC50: −log10 of the molar value.
VALUE KIND: pIC50

Give the measured pIC50 of O=C(Nc1cccc(-c2ncnc3sc(-c4ccncc4)cc23)c1)c1cccc(C(F)(F)F)c1 .
< 5.00

* * *

Biological target: Proto-oncogene tyrosine-protein kinase Src (Homo sapiens)
Sequence (P12931 2-536 limits assumed): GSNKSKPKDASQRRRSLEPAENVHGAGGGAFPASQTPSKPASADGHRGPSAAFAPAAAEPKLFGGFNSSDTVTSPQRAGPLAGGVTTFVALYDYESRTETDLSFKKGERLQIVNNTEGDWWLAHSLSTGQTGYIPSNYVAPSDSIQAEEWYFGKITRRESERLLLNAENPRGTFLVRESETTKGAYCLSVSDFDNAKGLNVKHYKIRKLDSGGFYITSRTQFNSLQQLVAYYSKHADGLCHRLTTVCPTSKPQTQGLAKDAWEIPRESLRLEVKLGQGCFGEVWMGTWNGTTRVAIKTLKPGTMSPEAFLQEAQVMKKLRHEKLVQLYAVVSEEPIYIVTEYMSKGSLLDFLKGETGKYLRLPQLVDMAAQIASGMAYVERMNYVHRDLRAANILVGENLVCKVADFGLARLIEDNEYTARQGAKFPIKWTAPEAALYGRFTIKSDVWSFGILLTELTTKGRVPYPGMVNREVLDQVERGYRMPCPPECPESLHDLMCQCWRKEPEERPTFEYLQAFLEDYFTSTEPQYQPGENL
pIC50: −log10 of the molar value.
VALUE KIND: pIC50

Could you share what pIC50 was measured for O=C(Nc1cccc(-c2ncnc3sc(-c4ccncc4)cc23)c1)c1cccc(C(F)(F)F)c1 , tested on Proto-oncogene tyrosine-protein kinase Src (Homo sapiens)?
< 5.00

* * *

Molecular target: RAC-alpha serine/threonine-protein kinase (Homo sapiens, UniProt P31749)
Sequence (P31749 whole entry): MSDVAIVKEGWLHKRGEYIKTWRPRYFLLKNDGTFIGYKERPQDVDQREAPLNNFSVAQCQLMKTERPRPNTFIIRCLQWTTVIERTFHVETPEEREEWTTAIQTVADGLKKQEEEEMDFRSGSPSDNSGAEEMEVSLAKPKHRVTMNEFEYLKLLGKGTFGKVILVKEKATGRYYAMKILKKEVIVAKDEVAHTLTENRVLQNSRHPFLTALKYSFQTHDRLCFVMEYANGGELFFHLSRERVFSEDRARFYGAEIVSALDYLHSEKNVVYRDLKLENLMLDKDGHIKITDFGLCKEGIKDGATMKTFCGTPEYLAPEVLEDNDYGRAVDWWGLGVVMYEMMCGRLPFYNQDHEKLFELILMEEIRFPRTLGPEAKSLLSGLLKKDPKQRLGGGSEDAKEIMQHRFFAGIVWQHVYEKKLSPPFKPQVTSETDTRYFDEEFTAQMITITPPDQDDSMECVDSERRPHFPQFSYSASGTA
pIC50: −log10 of the molar value.
VALUE KIND: pIC50

Form field: pIC50 recorded for O=C(Nc1cccc(-c2ncnc3sc(-c4ccncc4)cc23)c1)c1cccc(C(F)(F)F)c1 with RAC-alpha serine/threonine-protein kinase (Homo sapiens, UniProt P31749) (enter value)
< 5.00

* * *

Biological target: Tyrosine-protein kinase BTK (Homo sapiens, UniProt Q06187)
Sequence (Q06187 whole entry): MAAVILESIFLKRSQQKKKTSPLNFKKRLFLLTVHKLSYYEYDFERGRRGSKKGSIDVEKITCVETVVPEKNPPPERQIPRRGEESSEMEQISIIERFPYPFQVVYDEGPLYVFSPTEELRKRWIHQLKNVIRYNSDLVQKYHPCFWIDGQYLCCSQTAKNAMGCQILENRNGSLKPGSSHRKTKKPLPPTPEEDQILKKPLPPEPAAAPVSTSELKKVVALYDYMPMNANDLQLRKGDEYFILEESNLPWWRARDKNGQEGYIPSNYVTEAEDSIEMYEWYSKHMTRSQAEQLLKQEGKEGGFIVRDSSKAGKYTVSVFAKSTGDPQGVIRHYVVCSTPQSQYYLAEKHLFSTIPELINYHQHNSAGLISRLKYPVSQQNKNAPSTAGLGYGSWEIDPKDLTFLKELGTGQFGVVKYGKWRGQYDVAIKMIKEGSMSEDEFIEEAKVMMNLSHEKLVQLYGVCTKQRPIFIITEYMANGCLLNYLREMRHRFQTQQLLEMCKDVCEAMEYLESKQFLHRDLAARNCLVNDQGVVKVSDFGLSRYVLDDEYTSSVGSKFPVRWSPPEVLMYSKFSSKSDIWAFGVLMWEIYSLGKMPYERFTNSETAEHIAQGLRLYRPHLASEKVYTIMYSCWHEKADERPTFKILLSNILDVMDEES
VALUE KIND: IC50

Please give the measured IC50 for this compound: O=C(Nc1cccc(-c2ncnc3sc(-c4ccncc4)cc23)c1)c1cccc(C(F)(F)F)c1
> 10 µM

* * *

Target: Serine/threonine-protein kinase B-raf (Homo sapiens)
Sequence (P15056 whole entry): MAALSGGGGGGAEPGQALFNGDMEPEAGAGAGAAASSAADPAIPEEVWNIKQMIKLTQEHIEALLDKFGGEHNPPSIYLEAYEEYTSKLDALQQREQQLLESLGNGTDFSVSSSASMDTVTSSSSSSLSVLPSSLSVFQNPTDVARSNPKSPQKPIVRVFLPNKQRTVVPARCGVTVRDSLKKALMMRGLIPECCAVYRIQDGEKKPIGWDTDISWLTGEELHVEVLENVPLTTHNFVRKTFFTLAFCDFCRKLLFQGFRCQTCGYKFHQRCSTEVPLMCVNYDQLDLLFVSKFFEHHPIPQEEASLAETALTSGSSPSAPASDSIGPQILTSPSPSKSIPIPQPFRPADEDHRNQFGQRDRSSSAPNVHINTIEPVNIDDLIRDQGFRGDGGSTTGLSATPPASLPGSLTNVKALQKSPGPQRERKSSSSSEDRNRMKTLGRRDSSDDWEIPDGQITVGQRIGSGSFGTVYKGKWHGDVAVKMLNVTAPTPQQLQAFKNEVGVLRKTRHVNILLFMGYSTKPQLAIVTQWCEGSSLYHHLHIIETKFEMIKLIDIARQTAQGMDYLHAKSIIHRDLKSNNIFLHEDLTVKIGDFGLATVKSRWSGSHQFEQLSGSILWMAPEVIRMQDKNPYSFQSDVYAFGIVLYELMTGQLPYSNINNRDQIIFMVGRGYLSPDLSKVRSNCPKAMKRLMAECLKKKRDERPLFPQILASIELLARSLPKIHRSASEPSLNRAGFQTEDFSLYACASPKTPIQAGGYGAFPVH
VALUE KIND: IC50

Examples with their reported IC50 follow.
[
  {
    "SMILES STR": "O=C(Nc1cccc(-c2ccnc3cc(-c4cccnc4)nn23)c1)c1cccc(C(F)(F)F)c1",
    "VALUE KIND": "IC50",
    "OBSERVED VALUE": "> 10 µM"
  },
  {
    "SMILES STR": "N#Cc1cnc2cc(-c3cccnc3)sc2c1-c1cccc(NC(=O)c2cccc(C(F)(F)F)c2)c1",
    "VALUE KIND": "IC50",
    "OBSERVED VALUE": "> 10 µM"
  }
]

# query: IC50 of entry N#Cc1cnc2sc(-c3ccncc3)cc2c1-c1cccc(NC(=O)c2cccc(C(F)(F)F)c2)c1
> 10 µM

* * *

Tested on: LoVo
Assay: Growth inhibition of human LoVo cells
Assay type: functional, cell-based
VALUE KIND: IC50
Kindly format the answer as number then unit.

# lookup: IC50 of O=C(Nc1cccc(-c2ncnc3sc(-c4ccncc4)cc23)c1)c1cccc(C(F)(F)F)c1
0.3 µM
